- Tested on: Leishmania amazonensis
- ASSAY NOTES: Antileishmanial activity against GFP-tagged Leishmania amazonensis Josefa amastigotes infected in mouse peritoneal macrophages after 72 hrs by fluorimetric assay
- Format: functional, organism-based
- CONDITION NOTES: Leishmania amazonensis, Josefa, 72 h
pIC50: −log10 of the molar value.
REPORTED PROPERTY: pIC50

1. CC[C@H](C)[C@H]1O[C@]2(CC[C@@H]1C)C[C@@H](O)C[C@@H](C/C=C(\C)[C@@H](O)[C@@H](C)CO)O2 [NORTHERN AGLYCONE]; 4.52
2. CC[C@H](C)[C@H]1O[C@]2(CC[C@@H]1C)C[C@@H]1C[C@@H](C/C=C(\C)[C@@H](O[C@H]3C[C@H](OC)[C@@H](O[C@H]4C[C@H](OC)[C@@H](O)[C@H](C)O4)[C@H](C)O3)[C@@H](C)/C=C/C=C3\CO[C@@H]4[C@H](O)[C@@H](C)C=C(C(=O)O1)[C@]34O)O2; 5.44
3. CCOC(=O)C1=C[C@H](C)[C@@H](O)[C@H]2OC/C(=C\C=C\[C@H](C)[C@H](O[C@H]3C[C@H](OC)[C@@H](O[C@H]4C[C@H](OC)[C@@H](O)[C@H](C)O4)[C@H](C)O3)/C(C)=C/C[C@@H]3C[C@H](O)C[C@]4(CC[C@H](C)[C@@H]([C@@H](C)CC)O4)O3)[C@@]12O; 5.34
4. CC[C@H](C)[C@H]1O[C@]2(CC[C@@H]1C)C[C@@H](O)C[C@@H](C/C=C(\C)[C@@H](O[C@H]1C[C@H](OC)[C@@H](O[C@H]3C[C@H](OC)[C@@H](O)[C@H](C)O3)[C@H](C)O1)[C@@H](C)CO)O2; 4.88
5. CCOC(=O)[C@@H]1C=C(C)[C@@H](O)[C@H]2OC/C(=C\CO)[C@]21O [SOUTHERN DIOL]; 4.41
6. CC[C@H](C)[C@H]1O[C@]2(CC[C@@H]1C)C[C@@H](O)C[C@@H](C/C=C(\C)[C@@H](O[C@H]1C[C@H](OC)[C@@H](O)[C@H](C)O1)[C@@H](C)CO)O2 [NORTHERN MONOSACCHARIDE]; 4.38
7. CC[C@H](C)[C@H]1O[C@]2(CC[C@@H]1C)C[C@@H]1C[C@@H](C/C=C(\C)[C@@H](O)[C@@H](C)/C=C/C=C3\CO[C@@H]4[C@H](O)C(C)=C[C@@H](C(=O)O1)[C@]34O)O2 [IVM AGLYCONE]; 4.49
8. CCOC(=O)[C@@H]1C=C(C)[C@@H](O)[C@H]2OC/C(=C\C=C\[C@H](C)[C@H](O[C@H]3C[C@H](OC)[C@@H](O[C@H]4C[C@H](OC)[C@@H](O)[C@H](C)O4)[C@H](C)O3)/C(C)=C/C[C@@H]3C[C@H](O)C[C@]4(CC[C@H](C)[C@@H]([C@@H](C)CC)O4)O3)[C@]21O; 5.19

[I] CCOC(=O)C1=C[C@H](C)[C@@H](O)[C@H]2OC/C(=C\CO)[C@@]12O
[II] CC[C@H](C)[C@H]1O[C@]2(CC[C@@H]1C)C[C@@H]1C[C@@H](C/C=C(\C)[C@@H](O[C@H]3C[C@H](OC)[C@@H](O)[C@H](C)O3)[C@@H](C)/C=C/C=C3\CO[C@@H]4[C@H](O)C(C)=C[C@@H](C(=O)O1)[C@]34O)O2
[III] CC[C@H](C)[C@H]1O[C@]2(CC[C@@H]1C)C[C@@H](O)C[C@@H](CCO)O2 [SPIRODIOL]
# ascending order, key=pIC50 Response format: the labels, sorted as the prompt asks.
III, II, I
